Measured pIC50 accompanies every entry in the list below.
target: nicotinic acetylcholine receptor (nAChR); assay: [3H]imidacloprid displacement, bumble bee head membrane preparations; format: binding, B. terrestris; settings: bumble bee head membranes; 95% CI given in text
Just so you know, pIC50 here is -log10 of the concentration in molar units; reply with that number alone.

compound	meas value
O=[N+]([O-])NC1=NCCN1Cc1ccc(Cl)nc1 [imidacloprid]	9.15

Turning now to a further compound:
// Input: N#C/N=C1\SCCN1Cc1ccc(Cl)nc1 [thiacloprid] . Output its pIC50 only.
9.21

---

target: CYP9Q4 (Bombus terrestris, UniProt A0A9B0BBT5); assay: Metabolism by recombinant CYP9Q4/CPR microsomes, LC-MS/MS; conditions: Bombus terrestris
Sequence (Q07994 whole entry): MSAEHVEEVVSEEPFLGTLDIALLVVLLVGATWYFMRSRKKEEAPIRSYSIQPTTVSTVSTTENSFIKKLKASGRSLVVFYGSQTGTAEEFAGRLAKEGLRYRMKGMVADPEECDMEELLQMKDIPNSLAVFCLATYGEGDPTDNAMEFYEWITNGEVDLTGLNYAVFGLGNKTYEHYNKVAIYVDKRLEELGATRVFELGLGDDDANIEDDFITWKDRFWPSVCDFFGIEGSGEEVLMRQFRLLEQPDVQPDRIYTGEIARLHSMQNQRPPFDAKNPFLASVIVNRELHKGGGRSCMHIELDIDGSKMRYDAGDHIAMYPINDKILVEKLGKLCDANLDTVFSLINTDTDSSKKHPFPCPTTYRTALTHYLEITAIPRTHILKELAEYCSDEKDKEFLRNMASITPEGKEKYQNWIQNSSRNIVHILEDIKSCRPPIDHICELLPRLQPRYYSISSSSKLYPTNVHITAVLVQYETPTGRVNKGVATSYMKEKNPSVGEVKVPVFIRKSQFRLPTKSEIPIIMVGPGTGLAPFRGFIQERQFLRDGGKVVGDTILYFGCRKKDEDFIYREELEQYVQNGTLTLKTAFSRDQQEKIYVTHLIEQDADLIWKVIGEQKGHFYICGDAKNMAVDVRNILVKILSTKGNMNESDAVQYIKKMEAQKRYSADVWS
Sequence (A0A9B0BBT5 entry or part of it): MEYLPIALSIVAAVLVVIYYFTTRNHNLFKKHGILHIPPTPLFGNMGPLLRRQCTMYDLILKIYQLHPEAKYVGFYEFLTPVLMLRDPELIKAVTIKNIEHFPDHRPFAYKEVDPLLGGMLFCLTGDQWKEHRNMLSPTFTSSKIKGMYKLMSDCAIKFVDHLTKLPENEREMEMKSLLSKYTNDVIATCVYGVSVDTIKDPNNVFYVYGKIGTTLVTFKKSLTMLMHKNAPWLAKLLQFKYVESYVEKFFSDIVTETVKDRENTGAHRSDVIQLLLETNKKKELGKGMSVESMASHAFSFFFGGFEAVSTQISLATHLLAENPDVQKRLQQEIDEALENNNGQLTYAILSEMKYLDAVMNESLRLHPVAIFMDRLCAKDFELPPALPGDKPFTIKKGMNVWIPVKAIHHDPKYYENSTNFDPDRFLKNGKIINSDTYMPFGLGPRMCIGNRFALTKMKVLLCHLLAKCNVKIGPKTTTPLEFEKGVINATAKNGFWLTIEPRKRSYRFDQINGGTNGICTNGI
measure name: Km at 45 min
Put down the number, then write its unit next to it.

// Input: N#C/N=C1\SCCN1Cc1ccc(Cl)nc1 [thiacloprid] . Output its Km at 45 min only.
11.8 µM
